tested on: S. paratyphi 11737
Doc: threshold 4 µg/mL (exclusive). Items with MIC beneath it return fulfilled; others return not fulfilled.

# compound, experimental_target, qualitative_label
rows = [
    ("CS(=O)(=O)c1ccc(-n2ccc3c4c(N)nc(N)nc4ccc32)cc1 [Example 74]", "S. paratyphi 11737", "not fulfilled"),
    ("Cc1ccc(Cn2ccc3c4c(N)nc(N)nc4ccc32)cc1 [Example 21]", "S. paratyphi 11737", "fulfilled"),
    ("Cc1cc2c(ccc3nc(N)nc(N)c32)[nH]1 [Example 98]", "S. paratyphi 11737", "not fulfilled"),
]

INPUT: Determine if Nc1nc(N)c2c(ccc3[nH]c4c(c32)CCCC4)n1 [Example 107] shows MIC strictly lower than 4 µg/mL.
OUTPUT: not fulfilled

* * *

system: S. paratyphi 11737
Reported MIC is given for each of the following molecules.
Answer with a number only, understood to be in µg/mL.

# count of solved cases: 6
# molecule, experimental_target, MIC (µg/mL)
data = [
    ("Nc1nc(N)c2c(ccc3c2ccn3Cc2cccc3cccnc23)n1 [Example 51]", "S. paratyphi 11737", 1.95),
    ("Nc1nc(N)c2c(ccc3c2ccn3CC2CCCO2)n1 (stereo not drawn) [Example 67]", "S. paratyphi 11737", 7.81),
    ("Nc1nc(N)c2c(ccc3c2ccn3-c2ccc([N+](=O)[O-])cc2C(F)(F)F)n1 [Example 94]", "S. paratyphi 11737", 62.5),
    ("CC(C)c1ccc(Cn2ccc3c4c(N)nc(N)nc4ccc32)cc1 [Example 29]", "S. paratyphi 11737", 62.5),
    ("N#Cc1ccc(Cn2ccc3c4c(N)nc(N)nc4ccc32)cc1 [Example 16]", "S. paratyphi 11737", 0.488),
    ("CC(=O)c1ccc(-n2ccc3c4c(N)nc(N)nc4ccc32)cc1 [Example 71]", "S. paratyphi 11737", 7.81),
]

INPUT: What MIC appears in the records for this molecule with S. paratyphi 11737? Nc1nc(N)c2c(ccc3c2ccn3Cc2ccccc2Cl)n1 [Example 6]
OUTPUT: 1.95

* * *

system: S. paratyphi 11737; experiment: In vitro antibacterial activity (MIC), S. paratyphi 11737; assay type: cell-based; settings: Salmonella enterica, 18 h
measured_property: MIC (µg/mL)
Answer with a number only, understood to be in µg/mL.

# molecular_string, unit_string, MIC
rows = [
    ("CC(C)CCn1ccc2c3c(N)nc(N)nc3ccc21", "µg/mL", 3.9),
    ("N#Cc1ccc(-n2ccc3c4c(N)nc(N)nc4ccc32)cc1", "µg/mL", 31.3),
]

# next compound below
INPUT: Give the measured MIC of Nc1nc(N)c2c(ccc3c2ccn3-c2nccs2)n1 .
OUTPUT: 1.95

* * *

tested on: S. aureus 53-180; experiment: In vitro antibacterial activity (MIC), S. aureus 53-180; settings: Staphylococcus aureus, 53180, 18 h
Doc: threshold 1 mg/L (exclusive). Items with MIC beneath it return true (1); others return false (0).

Check out these entries, answers already filled in.
# molecular_string, qualitative_label
data = [
    ("COc1ccc(Cn2ccc3c4c(N)nc(N)nc4ccc32)cc1", "true (1)"),
    ("CCC(=O)c1ccc(-n2ccc3c4c(N)nc(N)nc4ccc32)cc1", "false (0)"),
    ("Cc1cc(-n2ccc3c4c(N)nc(N)nc4ccc32)ccc1[N+](=O)[O-]", "false (0)"),
    ("CC(=O)c1ccccc1-n1ccc2c3c(N)nc(N)nc3ccc21", "true (1)"),
    ("Nc1nc(N)c2c(ccc3c2ccn3Cc2ccc(C(=O)[O-])cc2)n1.[Na+]", "false (0)"),
]

INPUT: Determine if N#Cc1ccc(-n2ccc3c4c(N)nc(N)nc4ccc32)cc1 shows MIC strictly lower than 1 mg/L.
OUTPUT: true (1)

INPUT: Determine if COc1ccc(Cn2ccc3c4c(N)nc(N)nc4ccc32)cc1OC shows MIC strictly lower than 1 mg/L.
OUTPUT: true (1)

INPUT: Determine if Cc1cc2c3c(N)nc(N)nc3ccc2n1C shows MIC strictly lower than 1 mg/L.
OUTPUT: false (0)

* * *

test system: S. paratyphi 11737
measured_property: MIC (µg/mL)
Answer with a number only, understood to be in µg/mL.

# molecule, MIC [µg/mL]
rows = [
    ("N#Cc1cccc(Cn2ccc3c4c(N)nc(N)nc4ccc32)c1 [Example 15]", 0.488),
    ("Nc1nc(N)c2c(ccc3c2ccn3Cc2ccccc2C(F)(F)F)n1 [Example 11]", 3.9),
    ("Nc1nc(N)c2c(ccc3c2ccn3Cc2ccsc2)n1 [Example 41]", 0.976),
    ("Cn1ccc2c3c(N)nc(N)nc3ccc21 [Example 65]", 3.9),
    ("Nc1nc(N)c2c(ccc3c2ccn3Cc2ccccc2F)n1 [Example 3]", 0.976),
    ("COc1cc(Cn2ccc3c4c(N)nc(N)nc4ccc32)cc(OC)c1OC [Example 39]", 3.9),
    ("Nc1nc(N)c2c(ccc3c2ccn3Cc2cccc(Cl)c2)n1 [Example 7]", 31.3),
]

INPUT: What MIC appears in the records for this molecule with S. paratyphi 11737? Nc1nc(N)c2c(ccc3[nH]ccc32)n1 [Example 1]
OUTPUT: 31.3

* * *

tested on: S. paratyphi 11737
Reported MIC is given for each of the following molecules.

# count of solved cases: 3
# molecule, experimental_target, MIC
records = [
    ("Nc1nc(N)c2c(ccc3c2c2c(n3Cc3ccccc3)CCCC2)n1 [Example 108]", "S. paratyphi 11737", "> 250 µg/mL"),
    ("CC(=O)c1ccccc1-n1ccc2c3c(N)nc(N)nc3ccc21 [Example 70]", "S. paratyphi 11737", "0.488 µg/mL"),
    ("Cc1cc2c3c(N)nc(N)nc3ccc2n1Cc1ccc(C#N)cc1 [Example 102]", "S. paratyphi 11737", "7.81 µg/mL"),
]

INPUT: What MIC appears in the records for this molecule with S. paratyphi 11737? Cc1ccc2ccccc2c1Cn1ccc2c3c(N)nc(N)nc3ccc21 [Example 49]
OUTPUT: > 250 µg/mL

INPUT: What MIC appears in the records for this molecule with S. paratyphi 11737? Nc1nc(N)c2c(ccc3c2ccn3-c2ccccc2[N+](=O)[O-])n1 [Example 76]
OUTPUT: 1.95 µg/mL

* * *

Reported MIC is given for each of the following compounds.
tested on: S. aureus 53-180
Answer with a number only, understood to be in µg/mL.

# count of solved cases: 4
# compound, MIC / µg/mL
rows = [
    ("CC(C)=CCn1ccc2c3c(N)nc(N)nc3ccc21 [Example 55]", 0.976),
    ("CS(=O)(=O)c1ccc(-n2ccc3c4c(N)nc(N)nc4ccc32)cc1 [Example 74]", 0.976),
    ("Cn1c2c(c3c4c(N)nc(N)nc4ccc31)CCCC2 [Example 109]", 62.5),
    ("CC(=O)c1ccc(Cn2ccc3c4c(N)nc(N)nc4ccc32)cc1 [Example 61]", 0.122),
]

# next compound below
INPUT: What MIC appears in the records for this compound with S. aureus 53-180? Nc1nc(N)c2c(ccc3c2ccn3Cc2ccccn2)n1 [Example 43]
OUTPUT: 0.488

* * *

Reported MIC is given for each of the following compounds.
system: S. paratyphi 11737

# molecular_string, reported_result
rows = [
    ("Nc1nc(N)c2c(ccc3c2ccn3Cc2ccc3ccccc3c2Br)n1", "> 250 µg/mL"),
]

INPUT: Give the measured MIC of Nc1nc(N)c2c(ccc3c2ccn3Cc2ccc3ccccc3c2)n1 .
OUTPUT: > 250 µg/mL

INPUT: Give the measured MIC of Cc1cccc(C)c1Cn1ccc2c3c(N)nc(N)nc3ccc21 .
OUTPUT: > 250 µg/mL

INPUT: Give the measured MIC of Cc1cc(-n2ccc3c4c(N)nc(N)nc4ccc32)ccc1[N+](=O)[O-] .
OUTPUT: > 250 µg/mL

* * *

Entries with reported MIC on S. aureus 53-180
Answer with a number only, understood to be in µg/mL.

INPUT: What MIC appears in the records for this compound with S. aureus 53-180? Nc1nc(N)c2c(ccc3[nH]c4c(c32)CCCC4)n1
OUTPUT: 125

INPUT: What MIC appears in the records for this compound with S. aureus 53-180? Nc1nc(N)c2c(ccc3c2ccn3-c2ccc([N+](=O)[O-])cc2C(F)(F)F)n1
OUTPUT: 0.122

INPUT: What MIC appears in the records for this compound with S. aureus 53-180? Nc1nc(N)c2c(ccc3c2ccn3Cc2ccc(Cl)c(Cl)c2)n1
OUTPUT: 0.488

INPUT: What MIC appears in the records for this compound with S. aureus 53-180? Nc1ccc(-n2ccc3c4c(N)nc(N)nc4ccc32)cc1
OUTPUT: 0.244

INPUT: What MIC appears in the records for this compound with S. aureus 53-180? COc1cccc(Cn2ccc3c4c(N)nc(N)nc4ccc32)c1OC
OUTPUT: 0.244

INPUT: What MIC appears in the records for this compound with S. aureus 53-180? Nc1nc(N)c2c(ccc3c2ccn3Cc2ccc(OC(F)(F)F)cc2)n1
OUTPUT: 0.244

INPUT: What MIC appears in the records for this compound with S. aureus 53-180? Nc1nc(N)c2c(ccc3c2ccn3-c2cc(-c3ccccc3)nc3ccccc23)n1
OUTPUT: 7.81

INPUT: What MIC appears in the records for this compound with S. aureus 53-180? COc1cccc(Cn2ccc3c4c(N)nc(N)nc4ccc32)c1
OUTPUT: 0.976

INPUT: What MIC appears in the records for this compound with S. aureus 53-180? Nc1nc(N)c2c(ccc3c2ccn3-c2nccs2)n1
OUTPUT: 0.244

INPUT: What MIC appears in the records for this compound with S. aureus 53-180? Nc1nc(N)c2c(ccc3c2ccn3-c2ccnc3cc(C(F)(F)F)ccc23)n1
OUTPUT: 0.031

INPUT: What MIC appears in the records for this compound with S. aureus 53-180? Nc1nc(N)c2c(ccc3c2ccn3Cc2ccsc2)n1
OUTPUT: 0.976

INPUT: What MIC appears in the records for this compound with S. aureus 53-180? Cc1cc2c3c(N)nc(N)nc3ccc2n1Cc1cccc(C#N)c1
OUTPUT: 0.061

INPUT: What MIC appears in the records for this compound with S. aureus 53-180? Nc1nc(N)c2c(ccc3c2ccn3CCCc2ccccc2)n1
OUTPUT: 250

INPUT: What MIC appears in the records for this compound with S. aureus 53-180? Nc1nc(N)c2c(ccc3c2ccn3Cc2ccc3c(c2)OCO3)n1
OUTPUT: 1.95

INPUT: What MIC appears in the records for this compound with S. aureus 53-180? Nc1nc(N)c2c(ccc3c2ccn3Cc2cccc(C(F)(F)F)c2)n1
OUTPUT: 0.244

INPUT: What MIC appears in the records for this compound with S. aureus 53-180? Nc1nc(N)c2c(ccc3c2ccn3-c2ccnc3ccccc23)n1
OUTPUT: 0.0152

INPUT: What MIC appears in the records for this compound with S. aureus 53-180? Cc1cc(C)c(C)c(Cn2ccc3c4c(N)nc(N)nc4ccc32)c1C
OUTPUT: 15.6

INPUT: What MIC appears in the records for this compound with S. aureus 53-180? Nc1nc(N)c2c(ccc3c2ccn3CC2CCCO2)n1 (centres unmarked)
OUTPUT: 0.976

INPUT: What MIC appears in the records for this compound with S. aureus 53-180? Cc1cc(C)c(Cn2ccc3c4c(N)nc(N)nc4ccc32)c(C)c1
OUTPUT: 250

INPUT: What MIC appears in the records for this compound with S. aureus 53-180? Nc1nc(N)c2c(ccc3c2ccn3Cc2ccccc2F)n1
OUTPUT: 0.244

INPUT: What MIC appears in the records for this compound with S. aureus 53-180? COc1cc(Cn2ccc3c4c(N)nc(N)nc4ccc32)cc(OC)c1
OUTPUT: 0.244

INPUT: What MIC appears in the records for this compound with S. aureus 53-180? Cc1ccc(Cn2ccc3c4c(N)nc(N)nc4ccc32)c(C)c1
OUTPUT: 0.244

INPUT: What MIC appears in the records for this compound with S. aureus 53-180? N#Cc1cc([N+](=O)[O-])ccc1-n1ccc2c3c(N)nc(N)nc3ccc21
OUTPUT: 0.488

INPUT: What MIC appears in the records for this compound with S. aureus 53-180? CC(=O)c1ccc(-n2ccc3c4c(N)nc(N)nc4ccc32)cc1
OUTPUT: 0.488

INPUT: What MIC appears in the records for this compound with S. aureus 53-180? Nc1nc(N)c2c(ccc3c2ccn3Cc2ccccc2C(F)(F)F)n1
OUTPUT: 0.244

INPUT: What MIC appears in the records for this compound with S. aureus 53-180? Nc1nc(N)c2c(ccc3c2ccn3Cc2ccc3ccccc3c2)n1
OUTPUT: 125

INPUT: What MIC appears in the records for this compound with S. aureus 53-180? CSc1ccc(Cn2ccc3c4c(N)nc(N)nc4ccc32)cc1
OUTPUT: 0.488

INPUT: What MIC appears in the records for this compound with S. aureus 53-180? Nc1nc(N)c2c(ccc3c2ccn3Cc2csc3ccccc23)n1
OUTPUT: 31.3
